Experimental system: Platelet-activating factor acetylhydrolase (Homo sapiens)
Experiment summary: pPAFAH enzyme inhibitors, primary screen, biochemical, fluorescence polarization, human (AID 463082);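 also: inhibitors block binding of the rhodamine activity-based probe so polarization drops; 0% = enzyme with DMSO and 100% = wells lacking pPAFAH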
Test parameters: recombinant pPAFAH, FP-rhodamine probe fluorescence polarization; at 3.39 µM; active compounds read high
The whole screen tested about 330,000 compounds, of which about 4,900 (1.5%) were called active. This is one part of a sample in which actives are shown more often than they occur.
Measurement type: inhibition (%)
Answers are plain numbers, in %.

# example entries with known answers
Item "COC(=O)C1=C(c2cc3ccccc3s2)C[C@@H]2CC[C@H]1N2C(=O)NC(C)C" was tested on Platelet-activating factor acetylhydrolase (Homo sapiens); the reported inhibition is 4.37

Param item: "C=Cn1ccnc1P(=S)(c1cc(N(CC)CC)ns1)c1nccn1C=C" ; param system: Platelet-activating factor acetylhydrolase (Homo sapiens); output inhibition: -4.36

Next compound, please.
Platelet-activating factor acetylhydrolase (Homo sapiens) inhibition of "COc1ccccc1NC(=O)N1C[C@@H]2C[C@@H](C1)c1cccc(=O)n1C2" is 5.55

====

Experimental system: Platelet-activating factor acetylhydrolase (Homo sapiens) (UniProt Q13093)
Sequence (Q13093 whole entry, looked up): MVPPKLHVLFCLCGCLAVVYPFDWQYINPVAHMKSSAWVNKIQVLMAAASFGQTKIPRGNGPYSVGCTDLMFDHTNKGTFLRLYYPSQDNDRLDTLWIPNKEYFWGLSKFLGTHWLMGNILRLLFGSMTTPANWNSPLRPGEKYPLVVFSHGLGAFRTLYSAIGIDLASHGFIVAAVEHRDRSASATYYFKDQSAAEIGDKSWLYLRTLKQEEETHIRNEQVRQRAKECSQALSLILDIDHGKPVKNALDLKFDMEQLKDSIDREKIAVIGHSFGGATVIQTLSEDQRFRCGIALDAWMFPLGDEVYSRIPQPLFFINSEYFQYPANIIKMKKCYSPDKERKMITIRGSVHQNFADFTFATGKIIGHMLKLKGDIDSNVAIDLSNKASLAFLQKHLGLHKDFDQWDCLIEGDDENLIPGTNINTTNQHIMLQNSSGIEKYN
Experiment summary: pPAFAH enzyme inhibitors, primary screen, biochemical, fluorescence polarization, human (AID 463082);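 also: inhibitors block binding of the rhodamine activity-based probe so polarization drops; 0% = enzyme with DMSO and 100% = wells lacking pPAFAH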
Test parameters: recombinant pPAFAH, FP-rhodamine probe fluorescence polarization; at 3.39 µM; active compounds read high
Hit rate of the full screen: of about 330,000 compounds, about 4,900 (1.5%) were called active. This is one part of a sample in which actives are shown more often than they occur.
Measurement type: inhibition (%)
Numbers only, in %.

Example entries and their recorded answers appear below.
So for "COc1cccc(N2C(=O)NC(=O)/C(=C\c3cn(C)c4ccccc34)C2=O)c1" , the logged inhibition turned out to be 0.95

Please fill in: inhibition reported for O=[N+]([O-])c1ccc(C2C3C(c4ccccc4)=NC4(CCCCC4)N32)cc1 (stereo not given) = 6.5

The compound listed as "O=c1[nH]c(CN2CC=C(c3ccccc3)CC2)nc2scc(-c3cccs3)c12" has a reported inhibition of 8.85

Quick batch: inhibition for everything below.
1. COC(=O)C1=C(c2ccc(C(C)=O)cc2)C[C@@H]2CC[C@H]1N2C(=O)NCCNC(C)=O
2. C/C(=N/O)c1ccc2ccc3ccccc3c2c1
3. O=C1NC(=O)N(c2ccccc2)C(=O)/C1=C/c1ccc([N+](=O)[O-])s1
4. CN(C)c1ccc(/C=C2\CC3C4CC=C5CC(O)CCC5(C)C4CCC3(C)C2=O)cc1 (stereo not given)

3.68
1.83
58
3.94

====

Experimental system: Platelet-activating factor acetylhydrolase (Homo sapiens)
Experiment summary: pPAFAH enzyme inhibitors, primary screen, biochemical, fluorescence polarization, human (AID 463082);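 also: inhibitors block binding of the rhodamine activity-based probe so polarization drops; 0% = enzyme with DMSO and 100% = wells lacking pPAFAH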
Test parameters: recombinant pPAFAH, FP-rhodamine probe fluorescence polarization; at 3.39 µM
About 4,900 (1.5%) of roughly 330,000 compounds were called active.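 Rule for the calls: active = inhibition above the mean inhibition across the screen plus 3 SD (cut at about 25% in these data); inactive = the rest.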 The sample holds actives, similar compounds and a random draw of the others, so the mix is not that of the screen.
Write down one outcome, taken from active, inactive

Example cases with answers are listed next.
# outcome recorded in this test, key = "CSc1nc2ccc(C)cc2c(=O)n1-c1cccnc1"
inactive

So what was the verdict on "Cn1cc(C(=O)OCC(=O)N2CCCC2)c2ccccc21" in this test?
inactive

Shifting focus to the compound that follows.
Fill in: this test's call for "Cc1nn(-c2ccccc2)c(C)c1NC(=O)COC(=O)Cc1ccccc1" is ___
active
